molecular target: T1, mouse serum albumin (mouse, UniProt P07724 25-608); experiment: Octet HTX (ForteBio), HCAb on AHC sensor, 1:1 fit
T1 construct: also called MSA
T1 sequence (P07724 25-608 limits assumed): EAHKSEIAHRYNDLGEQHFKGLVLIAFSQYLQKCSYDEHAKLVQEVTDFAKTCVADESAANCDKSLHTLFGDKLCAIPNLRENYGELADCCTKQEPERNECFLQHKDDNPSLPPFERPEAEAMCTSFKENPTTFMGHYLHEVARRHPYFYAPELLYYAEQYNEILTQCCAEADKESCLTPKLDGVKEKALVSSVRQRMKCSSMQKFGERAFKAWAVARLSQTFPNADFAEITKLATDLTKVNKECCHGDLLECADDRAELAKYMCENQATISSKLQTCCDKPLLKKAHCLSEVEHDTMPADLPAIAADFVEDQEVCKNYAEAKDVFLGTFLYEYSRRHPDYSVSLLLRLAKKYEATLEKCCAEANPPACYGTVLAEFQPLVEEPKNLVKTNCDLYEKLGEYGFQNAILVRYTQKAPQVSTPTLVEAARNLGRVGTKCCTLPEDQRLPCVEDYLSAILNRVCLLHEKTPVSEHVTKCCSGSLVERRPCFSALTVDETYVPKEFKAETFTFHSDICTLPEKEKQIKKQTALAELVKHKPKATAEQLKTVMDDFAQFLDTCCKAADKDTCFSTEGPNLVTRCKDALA
Listing of entries alongside the reported koff.
Kindly answer with a numeric value in s⁻¹, unit omitted.

Below, each entry is followed by its recorded koff result.
{"columns": ["binder", "unit text", "koff"],
 "data": [
  ["CNG-HSA-115 (VHH) VHH: KVQLVESGGGLVQPGNSLRLSCAASGFTFSSFGMGWVRQAPGKGLEWVSSISGSGSDTLYAPSVKGRFTISRDNSKNTLYLQMNSLRPEDTAVYYCTFAGSLSRSSQGTLVTVSS", "s⁻¹", 0.00132],
  ["CNG-HSA-111 (VHH) VHH: KVQLVESGGGLVQPGGSLRLSCAASGFTFSSFGMSWVRQAPGKGLEWVSSISGSGSDTLYADSVEGRFTISRDNSKNTLYLQMNSLRAEDTAVYYCTIGGSLKQSSQGTLVTVSS", "s⁻¹", 0.00231],
  ["CNG-HSA-114 (VHH) VHH: KVQLVESGGGLVQPGNSLRLSCAASGFTFSSFGMSWVRQAPGKGLEWVSSISGSGSDTLTADSVKGRFTISRDNSKNTLYLQMNSLRAEDTAVYYCTIGGSLVRSSQGTLVTVSS", "s⁻¹", 0.0038]
]}

Here's the next entry for you.
Sure, the documented koff for CNG-HSA-106 (VHH) VHH: KVQLLESGGGLVQPGGSLRLSCAASGFTFSSFGMSWVRQAPGKGLEWVSSISGSGSDTLYADSVRGRFTISRDNSKNTLYLQMDSLRAEDTAVYYCTIGGSRSISSQGTLVTVSS is 0.0124
